Items are presented alongside their recorded protein stability index.
B1: EDARADD (parent)
chain: VEKVLRRWVDEEWPKRERGDPSRH

Variants of: B1
TEST_DETAILS: protein stability index of a GFP-peptide fusion (GPS, HEK-293T) (PSI 1-6); higher = more stable;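 further: lentivirally expressed fusions sorted by FACS into six bins by GFP to DsRed ratio, PSI derived from sequencing read proportions per bin multiplied by bin number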
CONDITION_SUMMARY: c terminus: a fixed tail appended
ATTRIBUTE_MEASURED: protein stability index

V1T
2.91
H24D
3.06
E2P
2.94
